testTarget: human ADAMTS-5 (Homo sapiens (Human), UniProt Q9UNA0)
Sequence (Q9UNA0 262-930): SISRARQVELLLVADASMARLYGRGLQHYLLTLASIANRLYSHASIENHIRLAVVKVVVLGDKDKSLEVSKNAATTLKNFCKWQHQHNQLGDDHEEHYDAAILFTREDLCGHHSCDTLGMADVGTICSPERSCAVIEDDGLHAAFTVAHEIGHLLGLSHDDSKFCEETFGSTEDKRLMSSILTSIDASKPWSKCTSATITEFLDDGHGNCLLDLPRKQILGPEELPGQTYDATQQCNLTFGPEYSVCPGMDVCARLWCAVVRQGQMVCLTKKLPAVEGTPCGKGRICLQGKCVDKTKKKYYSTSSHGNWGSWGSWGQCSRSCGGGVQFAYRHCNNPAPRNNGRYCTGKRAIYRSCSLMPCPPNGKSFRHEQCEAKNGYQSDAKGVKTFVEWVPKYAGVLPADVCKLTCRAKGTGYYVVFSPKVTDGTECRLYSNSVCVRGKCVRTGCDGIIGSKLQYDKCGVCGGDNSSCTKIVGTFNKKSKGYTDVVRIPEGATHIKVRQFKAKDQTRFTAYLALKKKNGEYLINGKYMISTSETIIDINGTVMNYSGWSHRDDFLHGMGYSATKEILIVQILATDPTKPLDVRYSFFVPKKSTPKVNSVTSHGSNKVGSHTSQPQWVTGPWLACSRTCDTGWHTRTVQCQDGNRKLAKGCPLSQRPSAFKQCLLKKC
assaySummary: hADAMTS-5 TBIS-1 cleavage assay, Protocol 3
Assay type: biochemical
experimentalConditions: Protocol 3, TBIS-1 substrate, 90 min at 37° C.; read-out: hADAMTS-5 potency IC50

{"molecule": "CC1(CCC(=O)N2CCC(c3ccc(Cl)c(F)c3)CC2)NC(=O)NC1=O (stereo not drawn)", "IC50": "> 100 nM"}
{"molecule": "O=C1NC(=O)C(CCC(=O)N2CCC(c3cccc(F)c3)CC2)(C2CC2)N1 (stereo not drawn)", "IC50": "25 to 50 nM"}
{"molecule": "COc1cc(C2CCN(C(=O)CC[C@H]3NC(=O)NC3=O)CC2)ccc1Cl", "IC50": "> 100 nM"}
{"molecule": "CCc1cc(C2CCN(C(=O)[C@@H](C)C[C@@]3(COC)NC(=O)NC3=O)CC2)cc(OC)c1Cl (stereo in doubt)", "IC50": "25 to 50 nM"}
{"molecule": "C[C@H]1CN(C(=O)CC[C@@]2(C)NC(=O)NC2=O)CC[C@H]1c1ccc(F)c(F)c1", "IC50": "50 to 100 nM"}
{"molecule": "CC1(CCC(=O)N2CCC(c3ccc(F)c(F)c3)CC2)NC(=O)NC1=O (stereo not drawn)", "IC50": "> 100 nM"}

* * *

testTarget: human ADAMTS6 (Homo sapiens (Human), UniProt Q9UKP5)
Sequence (Q9UKP5 other isoform, or with tags, fused parts or gaps): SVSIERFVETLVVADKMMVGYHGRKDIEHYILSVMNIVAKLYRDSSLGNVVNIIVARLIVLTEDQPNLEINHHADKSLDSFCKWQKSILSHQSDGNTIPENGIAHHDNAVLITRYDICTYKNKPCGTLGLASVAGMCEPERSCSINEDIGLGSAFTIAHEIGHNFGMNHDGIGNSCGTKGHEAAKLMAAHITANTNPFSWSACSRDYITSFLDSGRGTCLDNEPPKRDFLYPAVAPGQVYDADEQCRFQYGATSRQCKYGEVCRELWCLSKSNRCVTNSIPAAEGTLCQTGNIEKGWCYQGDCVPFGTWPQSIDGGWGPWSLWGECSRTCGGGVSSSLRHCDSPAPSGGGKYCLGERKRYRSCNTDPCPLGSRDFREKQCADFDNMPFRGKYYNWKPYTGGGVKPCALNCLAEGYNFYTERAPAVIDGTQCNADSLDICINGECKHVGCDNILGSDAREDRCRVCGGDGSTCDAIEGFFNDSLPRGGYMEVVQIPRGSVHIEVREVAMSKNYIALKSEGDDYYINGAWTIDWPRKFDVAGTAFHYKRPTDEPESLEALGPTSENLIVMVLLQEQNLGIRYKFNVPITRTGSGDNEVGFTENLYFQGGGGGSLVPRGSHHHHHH
measuredParameter: IC50

{"compound": "COc1cc(Cl)c(Cl)cc1C1CCN(C(=O)CCC2(c3cccc(C)n3)NC(=O)NC2=O)CC1 (stereo not drawn)", "measuredParameter": "IC50", "measurement": "0.001 to 25 nM"}
{"compound": "COc1cc(Cl)c(Cl)cc1C1CCN(C(=O)CC[C@@]2(C)NC(=O)NC2=O)CC1", "measuredParameter": "IC50", "measurement": "0.001 to 25 nM"}
{"compound": "COc1ccc(OC)c(C2CCN(C(=O)CCC3(C)NC(=O)NC3=O)CC2)c1 (stereo not drawn)", "measuredParameter": "IC50", "measurement": "> 100 nM"}
{"compound": "COc1cc(C2CCN(C(=O)CCC3(C)NC(=O)NC3=O)CC2)cc(OC)c1Cl (stereo not drawn)", "measuredParameter": "IC50", "measurement": "0.001 to 25 nM"}
{"compound": "COc1cc(Cl)cc(C2CCN(C(=O)CC[C@@]3(C)NC(=O)NC3=O)CC2)c1", "measuredParameter": "IC50", "measurement": "0.001 to 25 nM"}
{"compound": "CCOc1cc(C2CCN(C(=O)CC[C@@]3(C)NC(=O)NC3=O)CC2)cc(OC)c1Cl", "measuredParameter": "IC50", "measurement": "0.001 to 25 nM"}
